Recorded pIC50 values for a group of compounds are listed next.
Molecular target: TBK1 (Homo sapiens, UniProt Q9UHD2)
Sequence (Q9UHD2 1-729): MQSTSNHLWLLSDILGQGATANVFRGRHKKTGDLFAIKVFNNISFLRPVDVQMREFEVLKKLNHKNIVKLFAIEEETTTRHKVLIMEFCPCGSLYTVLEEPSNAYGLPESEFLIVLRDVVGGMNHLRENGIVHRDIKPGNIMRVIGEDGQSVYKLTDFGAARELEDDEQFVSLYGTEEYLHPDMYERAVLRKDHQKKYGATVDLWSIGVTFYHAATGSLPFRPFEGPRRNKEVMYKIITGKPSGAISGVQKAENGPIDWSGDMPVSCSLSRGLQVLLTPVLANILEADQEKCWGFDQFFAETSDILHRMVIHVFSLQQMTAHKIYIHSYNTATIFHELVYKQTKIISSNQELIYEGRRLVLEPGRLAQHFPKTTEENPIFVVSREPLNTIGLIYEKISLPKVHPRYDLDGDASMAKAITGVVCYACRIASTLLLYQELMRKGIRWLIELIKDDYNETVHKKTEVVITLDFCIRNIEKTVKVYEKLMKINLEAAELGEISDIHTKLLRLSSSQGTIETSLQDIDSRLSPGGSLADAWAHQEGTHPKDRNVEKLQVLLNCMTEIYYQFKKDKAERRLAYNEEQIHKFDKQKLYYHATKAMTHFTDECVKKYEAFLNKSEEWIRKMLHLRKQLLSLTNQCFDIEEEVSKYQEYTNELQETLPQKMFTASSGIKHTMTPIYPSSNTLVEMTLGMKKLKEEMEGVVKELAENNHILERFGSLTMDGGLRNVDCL
Assay: TBK Biochemical Assay
Details: read-out: TBK1 IC50
pIC50: −log10 of the molar value. Where a name gives a salt, the structure may show the parent alone.

These recorded examples may help you get a feel for the data.
In [3]: df
Out[3]:
                                   compound                        target_system        result
0  COc1cc(C(=O)N(C)C)ccc1-c1cc2nccc(-c3cc(F)c(OC4CCOC5(CC5)C4)c(C#N)c3)c2o1 (stereo not shown)  TBK1 (Homo sapiens, UniProt Q9UHD2)        < 5.30
1  COc1cc(C(=O)N(C)C)cnc1-c1cc2ncc(C)c(-c3ccc(NC4CCOCC4)c(C#N)n3)c2o1  TBK1 (Homo sapiens, UniProt Q9UHD2)  6.00 to 7.00
2  COc1cc(C(=O)N2CC3CCC2CN3C)ccc1-c1cc2nccc(-c3ccc(OC4CCOCC4)c(C#N)c3)c2o1 (stereo not shown)  TBK1 (Homo sapiens, UniProt Q9UHD2)        > 7.00
3  COc1cc(C(=O)NC2CN3CCC2CC3)ccc1-c1cc2nccc(-c3ccc(N4CC[C@@H](F)C4)c(C#N)c3)c2o1 (stereo partly shown)  TBK1 (Homo sapiens, UniProt Q9UHD2)        > 7.00

For the record COc1cc(C(=O)N(C)C)cnc1-c1cc2nccc(-c3ccc(NC4CCOCC4)c(C#N)n3)c2o1 [Compound 315, hydrochloride] , what value of pIC50 is listed for TBK1 (Homo sapiens, UniProt Q9UHD2)? > 7.00

For the record COc1cc(C(=O)N(C)C)cnc1-c1cc2ncc(F)c(-c3ccc(NC4CCOCC4)c(C#N)n3)c2o1 , what value of pIC50 is listed for TBK1 (Homo sapiens, UniProt Q9UHD2)? 6.00 to 7.00

For the record COc1cc(C(=O)N2CC3CN(C)CC3C2)cnc1-c1cc2nccc(-c3ccc(N4CC[C@@H](F)C4)c(C#N)c3)c2o1 (stereo partly shown) , what value of pIC50 is listed for TBK1 (Homo sapiens, UniProt Q9UHD2)? > 7.00

---

Recorded pIC50 values for a group of compounds are listed next.
Molecular target: IKKε (Homo sapiens)
Sequence (Q14164 whole entry, species assumed): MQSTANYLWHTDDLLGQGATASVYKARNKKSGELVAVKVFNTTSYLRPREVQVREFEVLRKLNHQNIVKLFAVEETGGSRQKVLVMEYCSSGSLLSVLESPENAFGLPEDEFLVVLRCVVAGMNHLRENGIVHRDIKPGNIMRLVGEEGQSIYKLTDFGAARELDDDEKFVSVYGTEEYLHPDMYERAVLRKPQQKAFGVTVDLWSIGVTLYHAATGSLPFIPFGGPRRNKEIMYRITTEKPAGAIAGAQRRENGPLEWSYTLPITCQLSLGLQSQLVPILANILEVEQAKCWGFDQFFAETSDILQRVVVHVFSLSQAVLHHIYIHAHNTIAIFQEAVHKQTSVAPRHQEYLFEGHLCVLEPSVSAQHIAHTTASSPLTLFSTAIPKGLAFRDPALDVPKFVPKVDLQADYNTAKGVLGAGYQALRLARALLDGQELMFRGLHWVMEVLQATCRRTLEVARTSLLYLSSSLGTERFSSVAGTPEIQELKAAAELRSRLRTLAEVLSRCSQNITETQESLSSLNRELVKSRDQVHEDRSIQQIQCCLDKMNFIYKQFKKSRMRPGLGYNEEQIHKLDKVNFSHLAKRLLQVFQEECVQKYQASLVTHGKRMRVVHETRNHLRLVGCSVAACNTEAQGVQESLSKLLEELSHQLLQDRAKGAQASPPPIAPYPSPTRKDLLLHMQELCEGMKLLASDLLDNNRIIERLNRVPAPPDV
Assay: IKKe Biochemical Assay
Conditions: read-out: IKKε IC50
pIC50: −log10 of the molar value. Structures can show the parent of a compound that is named as a salt.

In [3]: df
Out[3]:
                                   compound  endpoint_label        result
0  COc1cc(C(=O)N(C)CCO)ccc1-c1cc2ncc(Cl)c(-c3ccc(OC4CCOCC4)c(C#N)c3)c2o1           pIC50  6.00 to 7.00
1  COc1cc(C(=O)N[C@H]2C[C@H](CO)N(C)C2)ccc1-c1cc2nccc(-c3ccc(OC4CCOCC4)c(C#N)c3)c2o1 (stereo in doubt)           pIC50        > 7.00
2  COc1cc(C(=O)N(C)C)ncc1-c1cc2nccc(-c3ccc(OC4CCOCC4)c(C#N)c3)c2o1           pIC50        > 7.00

For the compound shown here, CN(C)C(=O)c1ccc(-c2cc3nccc(-c4ccc(O[C@@H]5CCCOC5)c(C#N)c4)c3o2)cc1 , give the reported pIC50. > 7.00

For the compound shown here, COc1cc(C(=O)N(C)C)ncc1-c1cc2nccc(-c3ccc(OC4CN(C)C4)c(C#N)c3)c2o1 , give the reported pIC50. 6.00 to 7.00

For the compound shown here, COc1cc(C(=O)N(C)C)ccc1-c1cc2nccc(-c3ccc(OCC4CCNC4)c(C#N)c3)c2o1 (stereo not shown) [Compound 152, hydrochloride] , give the reported pIC50. > 7.00

For the compound shown here, COc1cc(C(=O)N2C3CCCC2CC3)ccc1-c1cc2nccc(-c3ccc(OC4CCOCC4)c(C#N)c3)c2o1 , give the reported pIC50. > 7.00

For the compound shown here, COc1cc(C(=O)N2CC[C@H](N(C)C)C2)ccc1-c1cc2nccc(-c3ccc(N4CC[C@H](F)C4)c(C#N)c3)c2o1 , give the reported pIC50. > 7.00

For the compound shown here, CN(C)C(=O)c1ccc(-c2cc3ncc(F)c(-c4ccc(NC5CCOCC5)c(C#N)c4)c3o2)c(F)c1 , give the reported pIC50. 6.00 to 7.00

For the compound shown here, COc1cc(C(=O)N(C)C)ccc1-c1cc2nccc(-c3ccc(OC4CC(C)(C)NC(C)(C)C4)c(C#N)c3)c2o1 , give the reported pIC50. 6.00 to 7.00

For the compound shown here, COc1cc(C(=O)N2CCC(O)C2)ccc1-c1cc2nccc(-c3ccc(OC4CCOCC4)c(C#N)c3)c2o1 (stereo not shown) , give the reported pIC50. > 7.00

For the compound shown here, COc1c(C(=O)N(C)C)nn(C)c1-c1cc2nccc(-c3ccc(OC4CCOCC4)c(C#N)c3)c2o1 [Compound 401, hydrochloride] , give the reported pIC50. > 7.00

For the compound shown here, COc1cc(C(=O)N(C)CCO)ccc1-c1cc2ncc(F)c(-c3ccc(NC4CCOCC4)c(C#N)c3)c2o1 , give the reported pIC50. > 7.00

---

Molecular target: UniProtKB Q14164
Experiment: IKKe Biochemical Assay
Details: read-out: IKKε IC50
pIC50: −log10 of the molar value.
Endpoint Label: pIC50

These recorded examples may help you get a feel for the data.
                                   compound        result
0  COc1cc(C(=O)N2CC[C@@H](O)C2)ccc1-c1cc2nccc(-c3ccc(NC4CCOCC4)c(C#N)c3)c2o1 [Compound 95]        > 7.00
1  COc1cc(C(=O)N2CC3CCC(C2)O3)ccc1-c1cc2nccc(-c3ccc(NC4CCOCC4)c(C#N)c3)c2o1 [Compound 46]        > 7.00
2  COc1cc(C(=O)NC(C)(C)CN(C)C)ccc1-c1cc2nccc(-c3ccc(OC4CCOCC4)c(C#N)c3)c2o1 [Compound 63]        > 7.00
3  COc1cc(C(=O)N(C)C)cnc1-c1cc2nccc(-c3ccc(OC4CCOCC4F)c(C#N)c3)c2o1 (stereo not shown) [Compound 486]        > 7.00
4  CN(C)C(=O)c1cnc(-c2cc3nccc(-c4ccc(NC5CCOCC5)c(C#N)c4)c3o2)c(F)c1 [Compound 249]  6.00 to 7.00

For the compound shown here, COc1cc(C(=O)N(C)C)ncc1-c1cc2nccc(-c3ccc(OC4CCN(C)C4)c(C#N)c3)c2o1 (stereo not shown) [Compound 430] , give the reported pIC50. 6.00 to 7.00

For the compound shown here, CN(C)C(=O)c1ccc(-c2cc3nccc(-c4ccc(CN5CCOCC5)c(C#N)c4)c3o2)cc1 [Compound 222] , give the reported pIC50. 6.00 to 7.00

---

Recorded pIC50 values for a group of compounds are listed next.
Biological target: TBK1 (Homo sapiens, UniProt Q9UHD2)
Test: TBK Biochemical Assay
Settings: read-out: TBK1 IC50
pIC50: −log10 of the molar value.

These recorded examples may help you get a feel for the data.
In [3]: df
Out[3]:
                                   compound                        target_system  endpoint_label        result
0  COc1cc(C(=O)N2CCCCC2)ncc1-c1cc2nccc(-c3cc(C#N)c(OC4CCOCC4)cn3)c2o1  TBK1 (Homo sapiens, UniProt Q9UHD2)           pIC50  6.00 to 7.00
1  COc1cc(C(=O)N(C)C)ccc1-c1cc2nccc(-c3ccc(NC4CCCOC4)c(C#N)c3)c2o1 (stereo not shown)  TBK1 (Homo sapiens, UniProt Q9UHD2)           pIC50  6.00 to 7.00
2  COc1cc(C(=O)NC2CN3CCC2CC3)ccc1-c1cc2nccc(-c3ccc(N4CCC(F)C4)c(C#N)c3)c2o1 (stereo not shown)  TBK1 (Homo sapiens, UniProt Q9UHD2)           pIC50        > 7.00

Switching to the query record.
For the compound shown here, COc1cc(C(=O)NOC2COC2)ccc1-c1cc2nccc(-c3ccc(OC4CCOCC4)c(C#N)c3)c2o1 , give the reported pIC50. > 7.00
